tested_target: T1, recombinant human OX40-Fc (human, UniProt P43489 29-214)
T1 construct: also called rh-OX40-Fc; human OX40 hFC (R & D systems)
T1 sequence: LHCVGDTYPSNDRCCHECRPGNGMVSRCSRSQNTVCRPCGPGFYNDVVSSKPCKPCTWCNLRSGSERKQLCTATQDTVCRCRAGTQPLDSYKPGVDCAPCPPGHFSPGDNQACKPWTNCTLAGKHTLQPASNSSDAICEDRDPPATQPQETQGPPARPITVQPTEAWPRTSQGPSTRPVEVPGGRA
experiment: BLI, VHH-His on anti-His tips, OX40 hFc in solution;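 also: kinetics recorded at 30 °C in PBS pH 7.2, with 200 s of association followed by dissociation monitored in PBS lacking the OX40 protein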
reported_endpoint: koff (s⁻¹)

>>> recorded_value("pgXX88-60 (VHH, not shown: small tags and cut ends) VHH: EVQLVESGGGLAQPGGSLRLSCAASGFTFSNYAMGWYRQAPGKEREFVAAIDWSTNALLYGDSVKGRFTISRDNAKNTVFLQMSGLKPEDTALYYCAADRAYHTVVLGPPEGMDYWGKGTQVTVSS")
"1e-06"

I = pgXX88-83 (VHH, not shown: small tags and cut ends) VHH: EVQLVESGGGLVQTGDSLRLSCAALGGTPSTYAIGWFRQAAGKELQFVARITWNGDTWYADALPGRVAISRDNAKKTVYLQMNNLKPEDTAEYICAADVSEFRDIPNRDSRANYRYWGQGTQVTVSS
II = pgXX88-2 (VHH, not shown: small tags and cut ends) VHH: EVQLVESGGGLVQPGGSLRLSCAASGFAFGDIPMMWVRQAPGKGREWVSSISADSATQSYADSVQDRFTISRDNAKNTLYLEMHILKPEDTAVYYCATTDRPPPGQGTQVTVSS
III = pgXX88-81 (VHH, not shown: small tags and cut ends) VHH: EVQLVESGGGLAQPGSSLRLSCTASGTVFSILSATWFRQAPGKAHEARELVAFISSDGVSMHADSVKGRFTISRDNAKSTVYLQMDNLQPEDTAAYYCKLSNSMMGMEYWGRGTQVTVSS
Task item: Place the items in sequence of falling koff. Please respond with the labels ordered as the question requires.
Reply: II, I, III
